Reference source for all entries: PubChem BioAssay (EPA / NIEHS)

read-out: Pyruvate Dehydrogenase Kinase 4 (PDK4), PDK4 (gene 5166); assay: LTEA_HepaRG_PDK4: Life Technologies and Expression Analysis (LTEA) Assay for Pyruvate Dehydrogenase Kinase 4 (PDK4) using HepaRG (AID 2283525); details: mRNA level, 48 h; actives raise or lower the signal
Active and inactive are the calls of the source. Rule for the calls: active = hit-call score of the fitted dose curve at least 0.9, where 1 is the maximum; inactive = score below 0.9.
Readout Name: AC50

Here's what some known entries look like.
Chemical Smiles	Result
OCCCBr	inactive
CC(C)(O)c1cnn2c(-c3ccc(F)c(-c4c(F)cccc4C#N)c3)cnc2n1	inactive
O=C(Nc1ccccc1)c1ccccc1I	9.92 µM (active)
CC(C)(C)OOC(C)(C)CCC(C)(C)OOC(C)(C)C	inactive
CNC(=O)Oc1cccc2c1OC(C)(C)C2	4.56 µM (active)

For the next question, use this compound.
Req: Let me know recorded AC50 for O=C1CCCO1 , thanks.
Resp: inactive
